Ref: ChEMBL document CHEMBL1201862

tested on: HOP-92; assay: NCI tumour cell line growth inhibition, 48 h
Calls of active or inactive are those of the source. Rule as the data show it: active = GI50 up to about 1.1 µM and inactive = higher.
endpoint: GI50

## Input Please give the measured GI50 for this compound: Oc1ccccc1-n1nc2ccc3nonc3c2n1
## Output > 100 µM (inactive)

## Input Please give the measured GI50 for this compound: CC(=O)OC1COC(N2C(=O)C(=O)c3ccccc32)C(OC(C)=O)C1OC(C)=O (centres undefined)
## Output > 100 µM (inactive)

## Input Please give the measured GI50 for this compound: COc1ccc([C@@H]2ON(C)[C@H]3CN(C)C(=O)[C@@H]23)cc1
## Output > 100 µM (inactive)

## Input Please give the measured GI50 for this compound: Cc1cc(C)[n+]2c(c1)C=CC2.[O-][Cl+3]([O-])([O-])[O-]
## Output 8.57 µM (inactive)

* * *

For each record, write down the corresponding GI50.
system: MDA-MB-435; assay: NCI tumour cell line growth inhibition, 48 h
Activity calls are given as the source filed them. Cut-off read from the data, not from the text of the source: active = GI50 up to about 1.1 µM and inactive = higher.

## Input Please give the measured GI50 for this molecule: CC(=O)O[C@H]1[C@@H](N2CCCCC2)C[C@H]2[C@@H]3CC=C4C[C@@H](N5CCCC5)CC[C@]4(C)[C@H]3CC[C@@]21C
## Output 28.6 µM (inactive)

## Input Please give the measured GI50 for this molecule: C/C(N)=N/OCc1nc(C)no1
## Output > 100 µM (inactive)

## Input Please give the measured GI50 for this molecule: Cc1ccccc1[P+](C)(c1ccccc1C)c1ccccc1C
## Output 4.54 µM (inactive)

## Input Please give the measured GI50 for this molecule: Cc1nn(C(=O)Cc2ccccc2)c2c1C(c1ccc(O)cc1)SC(=N)N2 (centres undefined)
## Output > 100 µM (inactive)

* * *

test system: U-251; test: NCI tumour cell line growth inhibition, 48 h
Active and inactive are the calls of the source. No stated cut-off is given here; in the data, active = GI50 up to about 1.1 µM and inactive = higher.
endpoint: GI50

## Input Please give the measured GI50 for this compound: COc1ccccc1NCc1nnc(CCCCCCCCc2nnc(CNc3ccccc3OC)o2)o1
## Output > 100 µM (inactive)

## Input Please give the measured GI50 for this compound: [O-][S+]1Cc2ccccc2CS1 (configuration not stated)
## Output 10.7 µM (inactive)

## Input Please give the measured GI50 for this compound: C1CSC[C@H]2COC[C@@H](CSCCS1)S2
## Output > 100 µM (inactive)

## Input Please give the measured GI50 for this compound: CCCCC1(C(NC(=O)c2ccccc2Cl)c2ccncc2)C(=O)N(c2ccccc2)N(c2ccccc2)C1=O (configuration not stated)
## Output 34 µM (inactive)

## Input Please give the measured GI50 for this compound: Cc1cc(O)c2c(c1)CC(O)C1=C2C(=O)c2c(O)ccc(OC3CC(O)C(OC4CC(OC5CCC(O)C(C)O5)C(O)C(C)O4)C(C)O3)c2C1=O (configuration not stated)
## Output 1.32 µM (inactive)

## Input Please give the measured GI50 for this compound: COc1ccc(OC)c([N+](=O)[O-])c1-c1nc2sccn2c1/C=N/N=C(N)N
## Output 41.1 µM (inactive)

## Input Please give the measured GI50 for this compound: CNC(=S)/N=c1/sc(NC)nc2sc3c(c12)CCCC3
## Output 35.4 µM (inactive)

## Input Please give the measured GI50 for this compound: CC(C)CC[C@H](O)[C@@H](C)[C@H]1[C@@H](OC2OC(C)C(O)C(O)C2O)C[C@H]2[C@@H]3CC=C4C[C@@H](O)CC[C@]4(C)[C@H]3[C@@H](O)C[C@]12C (some centres not stated)
## Output 0.0562 µM (active)

## Input Please give the measured GI50 for this compound: COc1cccc(N2C(=O)C3CC(CC(C)(C)C)c4c([nH]c5ccccc45)C3C2=O)c1 (configuration not stated)
## Output 7.91 µM (inactive)

## Input Please give the measured GI50 for this compound: CCOc1ccc(-n2nnc3c(N)nc(N)nc32)cc1
## Output > 100 µM (inactive)

## Input Please give the measured GI50 for this compound: CC(=N/NC(=S)Nc1c(C)n(C)n(-c2ccccc2)c1=O)/C(C)=N\NC(=S)Nc1c(C)n(C)n(-c2ccccc2)c1=O
## Output > 100 µM (inactive)

## Input Please give the measured GI50 for this compound: CCOC(=O)c1c(SCCO)n(-c2ccccc2)c(=S)n(-c2ccccc2)c1=O
## Output > 100 µM (inactive)
